pIC50 values for the compounds below.
# TESTED_TARGET: ADAM10 (Homo sapiens)
# Sequence (O14672 214-748): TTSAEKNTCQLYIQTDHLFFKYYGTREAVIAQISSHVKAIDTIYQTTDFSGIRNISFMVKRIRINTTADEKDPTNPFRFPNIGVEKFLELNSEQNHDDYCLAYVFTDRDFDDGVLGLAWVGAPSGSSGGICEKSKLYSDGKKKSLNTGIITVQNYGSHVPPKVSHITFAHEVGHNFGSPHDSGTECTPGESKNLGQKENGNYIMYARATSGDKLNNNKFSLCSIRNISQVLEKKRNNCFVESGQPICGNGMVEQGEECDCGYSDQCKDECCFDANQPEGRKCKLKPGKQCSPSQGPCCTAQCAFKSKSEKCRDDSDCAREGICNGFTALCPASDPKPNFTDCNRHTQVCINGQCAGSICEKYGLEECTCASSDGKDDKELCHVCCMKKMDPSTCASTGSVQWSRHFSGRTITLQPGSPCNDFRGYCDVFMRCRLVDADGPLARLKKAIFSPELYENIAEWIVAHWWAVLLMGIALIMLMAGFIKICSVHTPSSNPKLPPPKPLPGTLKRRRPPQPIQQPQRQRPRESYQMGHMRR
# EXPERIMENT_NOTES: ADAM10 inhibition test
# CONDITION_DETAILS: recombinant ADAM10 (cDNA from THP-1 cells), fluorescent synthetic substrate Nma-[…]Dnp-D-Arg-NH2, 25° C., 5 hours; read-out: IC50 Value (50% inhibitory concentration against ADAM10)
pIC50: −log10 of the molar value.
QUANTITY_MEASURED: pIC50

COMPOUND	QUANTITATIVE_READOUT
CC#CCOc1ccc(S(=O)(=O)CC(c2ccc(CNC(=O)COC)cc2)N(O)C=O)cc1 (stereo not shown)	7.38
CC#CCOc1ccc(S(=O)(=O)CC(c2ccc(CN(C)C)cc2)N(O)C=O)cc1 (stereo not shown)	7.66
CC#CCOc1ccc(S(=O)(=O)CC(c2ccc(CN(CC)CC)cc2)N(O)C=O)cc1 (stereo not shown)	7.89
CC#CCOc1ccc(S(=O)(=O)CC(c2ccc(CNC(=O)c3ccccc3)cc2)N(O)C=O)cc1 (stereo not shown)	7.72
CCC#CCOc1ccc(S(=O)(=O)CC(c2ccc(CN3CCOCC3)cc2)N(O)C=O)cc1 (stereo not shown)	7.05
CC#CCOc1ccc(S(=O)(=O)CC(c2ccc(CN3CCOCC3)cc2)N(O)C=O)cc1 (stereo not shown)	7.15
CC#CCOc1ccc(S(=O)(=O)CC(c2ccc(CNS(C)(=O)=O)cc2)N(O)C=O)cc1 (stereo not shown)	7.40

---

# TESTED_TARGET: ADAM17 (Homo sapiens, UniProt P78536)
# Sequence (P78536 215-824): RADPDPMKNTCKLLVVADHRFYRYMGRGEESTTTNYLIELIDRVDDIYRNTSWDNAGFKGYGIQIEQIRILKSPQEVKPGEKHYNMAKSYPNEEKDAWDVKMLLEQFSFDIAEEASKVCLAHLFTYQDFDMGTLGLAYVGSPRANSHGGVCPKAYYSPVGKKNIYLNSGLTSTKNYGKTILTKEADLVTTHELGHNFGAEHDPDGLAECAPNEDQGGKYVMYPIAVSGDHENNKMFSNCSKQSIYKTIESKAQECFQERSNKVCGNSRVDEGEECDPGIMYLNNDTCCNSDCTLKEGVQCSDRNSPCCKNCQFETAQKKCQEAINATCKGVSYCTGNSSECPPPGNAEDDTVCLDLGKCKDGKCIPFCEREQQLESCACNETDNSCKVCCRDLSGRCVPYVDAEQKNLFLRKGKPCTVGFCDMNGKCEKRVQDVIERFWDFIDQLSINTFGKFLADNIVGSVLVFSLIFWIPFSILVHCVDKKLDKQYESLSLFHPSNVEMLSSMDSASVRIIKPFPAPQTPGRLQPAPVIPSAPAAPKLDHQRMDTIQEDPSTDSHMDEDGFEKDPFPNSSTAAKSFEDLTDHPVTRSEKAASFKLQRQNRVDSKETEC
# EXPERIMENT_NOTES: ADAM17 inhibition test
# CONDITION_DETAILS: recombinant ADAM17 (cDNA from THP-1 cells), fluorescent synthetic substrate Nma-[…]Dnp-D-Arg-NH2, 37° C., 1.5 hours; read-out: IC50 Value (50% inhibitory concentration against ADAM17)
# Y = IC50 below 8 nM (exclusive); N = IC50 at/above 8 nM

COMPOUND	TESTED_TARGET	DISCRETE_LABEL
CCC#CCOc1ccc(S(=O)(=O)CC(c2ccc(CN3CCOCC3)cc2)N(O)C=O)cc1 (stereo not shown)	ADAM17 (Homo sapiens, UniProt P78536)	N
CC#CCOc1ccc(S(=O)(=O)CC(c2ccc(CN(C)C)cc2)N(O)C=O)cc1 (stereo not shown)	ADAM17 (Homo sapiens, UniProt P78536)	Y
CC#CCOc1ccc(S(=O)(=O)CC(c2ccc(CNS(C)(=O)=O)cc2)N(O)C=O)cc1 (stereo not shown)	ADAM17 (Homo sapiens, UniProt P78536)	Y
CC#CCOc1ccc(S(=O)(=O)CC(c2ccc(CN3CCOCC3)cc2)N(O)C=O)cc1 (stereo not shown)	ADAM17 (Homo sapiens, UniProt P78536)	N
CC#CCOc1ccc(S(=O)(=O)CC(c2ccc(CN(CC)CC)cc2)N(O)C=O)cc1 (stereo not shown)	ADAM17 (Homo sapiens, UniProt P78536)	Y
CC#CCOc1ccc(S(=O)(=O)CC(c2ccc(CNC(=O)c3ccccc3)cc2)N(O)C=O)cc1 (stereo not shown)	ADAM17 (Homo sapiens, UniProt P78536)	Y

Data credit: patent US8765814B2
